Reported GI50 by item:
test system: HOP-92; experiment: NCI tumour cell line growth inhibition, 48 h
Activity calls are given as the source filed them. No stated cut-off is given here; in the data, active = GI50 up to about 1.1 µM and inactive = higher.
Readout Kind: GI50

> print(dat)
                                    compound              reading
 1  CCN(CC)CC(=O)Nc1ccc2c(c1)C(=O)c1ccc(NC(=O)CN(CC)CC)cc1C2=O   85.3 µM (inactive)
 2  O=C(Cn1c2ccc(Br)cc2c2nc3ccccc3nc21)NC1CCCCC1   51.1 µM (inactive)
 3  C[C@]12CCC(=O)C=C1CC[C@@H]1C2CC[C@]2(C)c3nn(-c4ccc(F)cc4)nc3CC12 (stereo not given in full)   61.1 µM (inactive)
 4  c1nc(N2CC2)c2cnn(C3CCCCO3)c2n1 (stereo not given)  > 100 µM (inactive)
 5       CCCSc1ccc2[nH]c(/N=C/c3ccccc3)cc2c1   25.5 µM (inactive)
 6  N=C(N)NCCCC(NC(=O)c1cccc2c(=O)c3ccccc3[nH]c12)C(=O)O (stereo not given)   58.9 µM (inactive)
 7     CN(C)C(=O)C1CCN(Cc2c[nH]c3ccccc23)CC1  > 100 µM (inactive)
 8  COc1ccc(C(=O)CC2=Nc3nnc(CCCCCCCc4nnc5n4C(=O)C(CC(=O)c4ccc(OC)cc4)=N5)n3C2=O)cc1  > 100 µM (inactive)
 9            Cc1ccc(/C=N/Nc2ccc3ccccc3n2)s1   19.1 µM (inactive)
10  COC(=O)C1([C@@H]2C[C@@H](O)[C@]3(C)CC/C=C(\C)CCC[C@H](C)[C@H](O)[C@@H]2O3)CC1   96.4 µM (inactive)

This collection of values is drawn from ChEMBL document CHEMBL1201862.
